// provenance: patent US20090298820A1

pIC50: −log10 of the molar value.
The next entries give measured pIC50 for PI3Kα (Homo sapiens).
measurementType: pIC50

smi: CN(C(=O)C1CCN(c2ccnc3c2c(C=C2Oc4ccc(NC(=O)Nc5cccnc5)cc4C2=O)cn3C)CC1)[C@@H]1CCNC1
measurementType: pIC50
prefixOperator: <
valueObserved: 5.00
//
smi: Cn1cc(C=C2Oc3ccc(NC(=O)Nc4cccnc4)cc3C2=O)c2c(N3CCC(C(=O)NC4CCOCC4)CC3)ccnc21
measurementType: pIC50
prefixOperator: <
valueObserved: 5.00
//
smi: CN1CCN(c2ccc(-c3ccnc4c3c(/C=C3\Oc5cc(O)cc(O)c5C3=O)cn4C)cc2)CC1
measurementType: pIC50
prefixOperator: =
valueObserved: 7.10
//
smi: CC(C)NC(=O)Nc1ccc2c(c1)C(=O)/C(=C/c1cn(C)c3nccc(N4CC5CCC(C4)O5)c13)O2
measurementType: pIC50
prefixOperator: =
valueObserved: 6.07
//
smi: CN(C)C(=O)C1CCN(c2ccnc3c2c(/C=C2\Oc4ccc(NC(=O)NC5CC5)cc4C2=O)cn3C)CC1
measurementType: pIC50
prefixOperator: =
valueObserved: 5.59
//
smi: CN(C(=O)C1CCN(c2ccnc3c2c(C=C2Oc4ccc(NC(=O)Nc5cccnc5)cc4C2=O)cn3C)CC1)[C@H]1CCNC1
measurementType: pIC50
prefixOperator: <
valueObserved: 5.00
//
smi: Cn1cc(/C=C2\Oc3cccc(O)c3C2=O)c2c(N3CCSCC3)ccnc21
measurementType: pIC50
prefixOperator: =
valueObserved: 6.98
